measurement.target: 14-3-3σ/ERα (Homo sapiens, UniProt P03372+P31947)
Construct: The 14-3-3 σ isoform (full-length for mass spectrometry and fluorescence anisotropy assays, ΔC for crystallography); made in house; host or cells: E. coli Rosetta 2(DE3)pLysS, pPROEX HTb vector
Sequence (P31947 whole entry, other chains not shown, canonical isoform): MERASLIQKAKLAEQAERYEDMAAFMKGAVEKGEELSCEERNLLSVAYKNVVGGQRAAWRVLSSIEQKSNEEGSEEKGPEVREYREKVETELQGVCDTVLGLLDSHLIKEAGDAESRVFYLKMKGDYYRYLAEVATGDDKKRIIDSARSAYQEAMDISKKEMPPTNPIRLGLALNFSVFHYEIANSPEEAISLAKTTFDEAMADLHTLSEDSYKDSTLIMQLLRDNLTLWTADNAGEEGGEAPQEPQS
method: Mass spectrometry dose response, compound binding to 14-3-3σ in the presence of ERα phosphopeptide
experimental.setup: 100 nM compound, 100 nM 14-3-3σ, ERα-peptide 2 µM, 24h
property: Percentage (%) bound of compound to 14-3-3σ, ERα 24h

compound	experimental.value
O=C(CCl)NCC1CCN(C(=O)C2(Oc3ccc(Cl)cc3)CCCCC2)CC1 [compound 122]	32.3%
CC(C)(Oc1ccc(Cl)cc1)C(=O)N1CCC(CNC(=O)CCl)CC1 [compound 27]	30.6%
O=C(CCl)NCCCC1CCN(C(=O)C2(Nc3ccc(Cl)cc3)CCNCC2)CC1 [compound 153]	88.8%
O=C(CCl)NCC1CCN(C(=O)C2(Oc3ccc(Cl)cc3)CCC(F)(F)CC2)CC1 [compound 124]	66.9%
O=C(CCl)NCC1CCN(C(=O)C2(Nc3ccc(Cl)cc3)CCNCC2)CC1 [compound 131]	98.3%
CC1CC(Nc2ccc(Cl)cc2)(C(=O)N2CCC(CNC(=O)CCl)CC2)CC(C)O1 (centres unmarked) [compound 178]	96.4%
O=C(CCl)NCC1CCN(C(=O)C2(Oc3ccc(Cl)cc3)CCCC2)CC1 [compound 117]	63.7%
O=C(CCl)N1CCC2(CC1)CC(CNC(=O)C1(Nc3ccc(Cl)cc3)CCOCC1)C2 [compound 175]	87.3%
O=C(CCl)NCCCC1CCN(C(=O)C2(Nc3ccc(Cl)cc3)CCOCC2)CC1 [compound 149]	86.7%
CC1(C)CC(Nc2ccc(Cl)cc2)(C(=O)N2CCC(CNC(=O)CCl)CC2)CC(C)(C)O1 [compound 179]	11.8%
CC(C)(Nc1ccccc1)C(=O)N1CCC(CNC(=O)CCl)CC1 [compound 85]	1.5%
CC(C)(Oc1ccc(Cl)cc1)C(=O)N1CCC(CCNC(=O)CCl)CC1 [compound 28]	10.9%
O=C(CCl)NCC1CCN(C(=O)C2(Nc3ccc(Cl)cc3)CCC(F)(F)CC2)CC1 [compound 125]	87.5%
O=C(CCl)CCC1CCN(C(=O)C2(Nc3ccc(Cl)cc3)CCOCC2)CC1 [compound 156]	100%
NC1CCC(Nc2ccc(Cl)cc2)(C(=O)N2CCC(CNC(=O)CCl)CC2)CC1 (centres unmarked) [compound 137]	96.4%
O=C(CCl)NCC1CCN(C(=O)C2(Nc3ccc(Cl)cc3)CCOCC2)CC1 [compound 127]	85.2%
O=C(CCl)NCCC1CCN(C(=O)C2(Nc3ccc(Cl)cc3)CCNCC2)CC1 [compound 151]	75.0%

----------
measurement.target: 14-3-3σ/ERα (Homo sapiens, UniProt P03372+P31947)
Construct: The 14-3-3 σ isoform (full-length for mass spectrometry and fluorescence anisotropy assays, ΔC for crystallography); made in house; host or cells: E. coli Rosetta 2(DE3)pLysS, pPROEX HTb vector
method: Mass spectrometry dose response, compound binding to 14-3-3σ in the presence of ERα phosphopeptide
experimental.setup: 100 nM compound, 100 nM 14-3-3σ, ERα-peptide 2 µM, 1h
List of Percentage (%) bound of compound to 14-3-3σ, ERα 1h values.
property: Percentage (%) bound of compound to 14-3-3σ, ERα 1h

compound	experimental.value
CC1CC(Nc2ccc(Cl)cc2)(C(=O)NCC2CC3(CCN(C(=O)CCl)CC3)C2)CC(C)O1 (stereo not shown)	40.8
CC(C)(Oc1ccc(Cl)cc1)C(=O)N1CCC(CNC(=O)CCl)CC1	1.4
O=C(CCl)NCC1CC2(CCN(C(=O)C3(Nc4ccc(Cl)cc4)CCOCC3)CC2)C1	5.0
Cl.O=C(CCl)NCC1CCN(C(=O)C2(Oc3ccc(Cl)cc3)CCNCC2)CC1	16.5

----------
List of X Fold stabilization (100 µM compound) of 14-3-3σ/ERα values.
measurement.target: 14-3-3σ/ERα (Homo sapiens, UniProt P03372+P31947)
Construct: The 14-3-3 σ isoform (full-length for mass spectrometry and fluorescence anisotropy assays, ΔC for crystallography); made in house; host or cells: E. coli Rosetta 2(DE3)pLysS, pPROEX HTb vector
method: Fluorescence anisotropy protein titration, FAM-labeled ERα peptide
Assay type: binding
experimental.setup: 10 nM FAM-ERα peptide, versus DMSO reference
property: X Fold stabilization (100 µM compound) of 14-3-3σ/ERα (fold)

compound	experimental.value
O=C(CCl)NCC1CCN(C(=O)C2(Nc3ccc(Cl)cc3)CCNCC2)CC1 [compound 131]	30
O=C(CCl)N1CCC2(CC1)CC(NC(=O)C1(Nc3ccc(Cl)cc3)CCOCC1)C2 [compound 163]	18
CC1CC(Nc2ccc(Cl)cc2)(C(=O)N2CCC(CNC(=O)CCl)CC2)CC(C)O1 (centres unmarked) [compound 178]	15
O=C(CCl)NC1CC2(CCN(C(=O)C3(Nc4ccc(Cl)cc4)CCOCC3)CC2)C1 [compound 166]	13
O=C(CCl)NCC1CCN(C(=O)C2(Nc3ccc(Cl)cc3)CCOCC2)CC1 [compound 127]	19

----------
measurement.target: 14-3-3σ (Homo sapiens)
Construct: The 14-3-3 σ isoform (full-length for mass spectrometry and fluorescence anisotropy assays, ΔC for crystallography); made in house; host or cells: E. coli Rosetta 2(DE3)pLysS, pPROEX HTb vector
Sequence (P31947 whole entry, canonical isoform): as the sequence (P31947 whole entry, other chains not shown, canonical isoform) above
method: Mass spectrometry dose response, compound binding to 14-3-3σ in the absence of peptide (apo)
experimental.setup: 100 nM compound, 100 nM 14-3-3σ, 24h
// returns NOT MET unless Percentage (%) bound of compound to 14-3-3σ, APO 24h is strictly below 4%, in which case MET

compound	assigned.category
O=C(CCl)NCC1CCN(C(=O)C2(Nc3ccc(Cl)cc3)CCNCC2)CC1	NOT MET
O=C(CCl)N1CCC2(CC1)CC(CNC(=O)C1(Nc3ccc(Cl)cc3)CCOCC1)C2	NOT MET
O=C(CCl)NCCC1CCN(C(=O)C2(Nc3ccc(Cl)cc3)CCNCC2)CC1	MET
O=C(CCl)NC1CC2(CCN(C(=O)C3(Nc4ccc(Cl)cc4)CCOCC3)CC2)C1	NOT MET
O=C(CCl)NCC1CCN(C(=O)C2(Nc3ccc(Cl)cc3)CCCCC2)CC1	MET
O=C(CCl)N1CCC2(CC1)CCN(C(=O)C1(Nc3ccc(Cl)cc3)CCOCC1)CC2	NOT MET
O=C(CCl)N1CCC2(CC1)CC(NC(=O)C1(Nc3ccc(Cl)cc3)CCOCC1)C2	NOT MET
O=C(CCl)NCC1CCN(C(=O)C2(Oc3ccc(Cl)cc3)CCCC2)CC1	MET
O=C(CCl)NCC1CCN(C(=O)C2(Oc3ccc(Cl)cc3)CCOCC2)CC1	MET
CC1CC(Nc2ccc(Cl)cc2)(C(=O)NCC2CC3(CCN(C(=O)CCl)CC3)C2)CC(C)O1 (centres unmarked)	NOT MET
O=C(CCl)CCC1CCN(C(=O)C2(Nc3ccc(Cl)cc3)CCOCC2)CC1	NOT MET
CC(C)(Nc1ccc(Cl)cc1)C(=O)N1CCC(CNC(=O)CCl)CC1	NOT MET
CC(C)(Oc1ccc(Cl)cc1)C(=O)N1CCC(CCC(=O)CCl)CC1	NOT MET
Cl.O=C(CCl)NCC1CCN(C(=O)C2(Nc3ccccc3)CCNCC2)CC1	NOT MET
CC(C)(Oc1ccc(Cl)cc1)C(=O)N1CCC(CNC(=O)CCl)CC1	MET
CC(C)(Oc1ccc(Cl)cc1)C(=O)N1CCC(CCCNC(=O)CCl)CC1	MET
O=C(CCl)NCC1CCN(C(=O)C2(Nc3ccc(Cl)cc3)CCOCC2)CC1	MET
CC(C)(Oc1ccc(Cl)cc1)C(=O)N1CCC(NC(=O)CCl)CC1	MET
CC1(C)CC(Nc2ccc(Cl)cc2)(C(=O)N2CCC(CNC(=O)CCl)CC2)CC(C)(C)O1	MET
O=C(CCl)N1CC2(CCN(C(=O)C3(Nc4ccc(Cl)cc4)CCOCC3)CC2)C1	NOT MET
Cl.O=C(CCl)NCC1CCN(C(=O)C2(Oc3ccc(Cl)cc3)CCNCC2)CC1	NOT MET
NC1CCC(Oc2ccc(Cl)cc2)(C(=O)N2CCC(CNC(=O)CCl)CC2)CC1 (centres unmarked)	MET
O=C(CCl)NCCCC1CCN(C(=O)C2(Nc3ccc(Cl)cc3)CCNCC2)CC1	NOT MET
O=C(CCl)NCCC1CCN(C(=O)C2(Nc3ccc(Cl)cc3)CCOCC2)CC1	MET
O=C(CCl)NCC1CCN(C(=O)C2(Nc3ccccc3)CCCCC2)CC1	MET
CC(C)(Nc1ccccc1)C(=O)N1CCC(CNC(=O)CCl)CC1	MET
Cl.NC1CCC(Oc2ccccc2)(C(=O)N2CCC(CNC(=O)CCl)CC2)CC1 (centres unmarked)	MET
O=C(CCl)NCC1CCN(C(=O)C2(Oc3ccc(Cl)cc3)CC2)CC1	MET

Where do the numbers come from? From paper PMC10515640.
